# experiment.description: yeast display, Sf9 membrane polyspecificity reagent, FACS + sequencing; frameworks hold sequencing errors
recorded.endpoint: polyreactivity (PSR sort gate)

In the examples that follow, each entry is paired with its recorded polyreactivity (PSR sort gate).
QVQLVESGGGLVQAGGSLRLSCAASGSTFAPYAMGWYRQAPGKETELVARITGSGGGTTYADSVKGRFTISRDNAKNTVYLQMNSLKPEDTAVYYCAAPRASQYGDDYWGQGTQVTVSS; high polyreactivity
QVQLVESGRGLVQAGGSLRLSCAASGRIFVYYAMGWYRQAPGKERELVATISSGGSTYYADSVKGRFTISRDNAKNTVYLQMNSLKPEDTAVYYCAADNVNRYLAYYYKGDYWGQGTQVTVSS; low polyreactivity
QVQLVESGGGLVQAGGSLRLSCAASGSTFYYAMGWYRQAPGKEMELVASITFSTGSTYYADSVKGRFTISRDNAKNTVYLQMNSLKPEDTAVYYCATGVDTYSLTVEHDSWGQGTQVTVSS; low polyreactivity
QVQLEETGGGLVQAGGSLRLSCAASGIILGKNAMGWYRQAPGKERELVASITSGAGITYYADSVKGRFTISRDNAKNTVYLQMNSLKPEDTAVYYCAADWSGDFFTDGYWGQGTQVTVSS; low polyreactivity
QVQLQESVGGLVQAGGSLRLSCAASGTISPQPAMGWYRPAPGKEREFVAGIDTGAITNYADSVKGRFTISRDNAKNTVYLQMNSLKPEDTAVYYCAVFPAAYDYYERYYTYWGLGTQVTVSS; low polyreactivity

Input QVQLVESGGGLVQAGGSLRLSCAASGRTFGYYVMGWYRQAPGKERELVAAITYTGGSTYYADSVKGRFTISRDNAKNTVYLQMNSLKPEDTAVYYCATSTYKPTYGYDYWGKGTQVTVSS . Output polyreactivity (PSR sort gate): low polyreactivity

Input QVQLVESGGGLVQAGGSLRLSCAASGIIFGTYAMGWYRQAPGKERELVASISSRGGSTYYADTVKGRFTISRDNAKNTVYLQMNSLKPEDTAVYYCAARNAYPGNSMDSWGLGTQVTVSS . Output polyreactivity (PSR sort gate): high polyreactivity

Input QVQLVESGGGLVQAGGSLRLSCAASGIIFRNYAMGWYRQAPGKEREFVAAISYRGGTTYYADSVKGRFTISRDNAKNTVYLQMNSLKPEDTAVYYCAAPYYLQQSRYYYWGQGTQVTVSS . Output polyreactivity (PSR sort gate): high polyreactivity
